I'd be grateful if you could share measured MIC for these entries.
Tested on: Pseudomonas aeruginosa
Assay: Antibacterial activity against extended spectrum beta-lactamase IMP-4 producing multidrug resistant Pseudomonas aeruginosa clinical isolates after 18 hrs by broth microdilution method
Type: functional

Reference set, count: 2
| compound | experimental_target | MIC |
| --- | --- | --- |
| CO/N=C(\C(=O)N[C@@H]1C(=O)N2C(C(=O)[O-])=CCS[C@H]12)c1csc(N)n1.[Na+] [CEFTIZOXIME SODIUM] | Pseudomonas aeruginosa | > 64 µg/mL |
| CC(C)[C@@H](O/N=C(\C(=O)N[C@@H]1C(=O)N(OS(=O)(=O)O)C1(C)C)c1csc(N)n1)c1cc(=O)c(O)cn1O | Pseudomonas aeruginosa | 1 to 4 µg/mL |

# next compound below
Q: Can you share its MIC? I mean this compound: CC1(C)[C@H](NC(=O)/C(=N\OCc2cc(=O)c(O)cn2O)c2csc(N)n2)C(=O)N1OS(=O)(=O)O
Ans: 1 to 4 µg/mL

====

Tested on: Pseudomonas aeruginosa
Experiment: Antibacterial activity against extended spectrum beta-lactamase IMP-4 producing multidrug resistant Pseudomonas aeruginosa clinical isolates after 18 hrs by broth microdilution method
Format: functional
I'd be grateful if you could share measured MIC for these entries.

| compound | value_kind | value_measured |
| --- | --- | --- |
| CC1(C)[C@H](NC(=O)/C(=N\OC(CO)c2cc(=O)c(O)cn2O)c2csc(N)n2)C(=O)N1OS(=O)(=O)O (stereo partly drawn) | MIC | 0.25 to 16 mg/L |

Return reported MIC values for all items listed beneath this line.
1. CC1(C)[C@H](NC(=O)/C(=N\OC(c2cccs2)c2cc(=O)c(O)cn2O)c2csc(N)n2)C(=O)N1OS(=O)(=O)O (stereo partly drawn)
2. C=CC(O/N=C(\C(=O)N[C@@H]1C(=O)N(OS(=O)(=O)O)C1(C)C)c1csc(N)n1)c1cc(=O)c(O)cn1O (stereo partly drawn)

Ans:
0.5 to 2 mg/L
0.5 to 2 mg/L

Return reported MIC values for all items listed beneath this line.
1. CC(C)[C@@H](O/N=C(\C(=O)N[C@@H]1C(=O)N(OS(=O)(=O)O)C1(C)C)c1nc(N)sc1Cl)c1cc(=O)c(O)cn1O
2. CC(C)C(O/N=C(\C(=O)N[C@@H]1C(=O)N(OS(=O)(=O)O)C1(C)C)c1nc(N)sc1Cl)c1cc(=O)c(O)cn1O (stereo partly drawn)
3. CC(C)SCC(O/N=C(\C(=O)N[C@@H]1C(=O)N(OS(=O)(=O)O)C1(C)C)c1csc(N)n1)c1cc(=O)c(O)cn1O (stereo partly drawn)
4. CCC(O/N=C(\C(=O)N[C@@H]1C(=O)N(OS(=O)(=O)O)C1(C)C)c1csc(N)n1)c1cc(=O)c(O)cn1O (stereo partly drawn)
5. CC(C)[C@@H](O/N=C(\C(=O)N[C@@H]1C(=O)N(OS(=O)(=O)O)C1(C)C)c1nsc(N)n1)c1cc(=O)c(O)cn1O

Ans:
0.5 to 4 mg/L
0.25 to 8 mg/L
0.25 to 4 mg/L
0.125 to 4 mg/L
1 to 4 mg/L

These measurements were taken from ChEMBL document CHEMBL4007487.
